Reference for the values: ChEMBL document CHEMBL5291721

Molecular target: Beta-1 adrenergic receptor (Homo sapiens, UniProt P08588); further: assay procedure not described here
Sequence (P08588 whole entry): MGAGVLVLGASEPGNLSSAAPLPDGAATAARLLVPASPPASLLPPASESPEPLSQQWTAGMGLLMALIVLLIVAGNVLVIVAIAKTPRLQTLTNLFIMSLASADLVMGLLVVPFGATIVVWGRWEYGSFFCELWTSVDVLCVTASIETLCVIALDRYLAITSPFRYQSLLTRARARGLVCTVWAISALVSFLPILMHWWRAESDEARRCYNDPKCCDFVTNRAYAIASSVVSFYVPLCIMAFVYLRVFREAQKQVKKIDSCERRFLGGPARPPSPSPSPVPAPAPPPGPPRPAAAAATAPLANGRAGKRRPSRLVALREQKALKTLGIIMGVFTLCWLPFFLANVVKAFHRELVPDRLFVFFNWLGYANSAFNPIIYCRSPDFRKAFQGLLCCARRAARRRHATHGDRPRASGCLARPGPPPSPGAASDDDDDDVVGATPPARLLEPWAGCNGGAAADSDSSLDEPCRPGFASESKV
Assay type: functional
Collected AC50 values appear next to each entry.

Solved entries (count: 5):
Problem: For O=C(O)Cc1cn(-c2ccccc2)nc1-c1ccc(Cl)cc1 [LONAZOLAC] , what is its reported AC50?
Result: > 30 µM

Problem: For Cc1c(O)c(=O)ccn1C [DEFERIPRONE] , what is its reported AC50?
Result: > 30 µM

Problem: For Cc1nc2ccc(CN(C)c3ccc(C(=O)N[C@@H](CCC(=O)O)C(=O)O)s3)cc2c(=O)[nH]1 [RALTITREXED] , what is its reported AC50?
Result: > 30 µM

Problem: For C=C1C[C@@H]2[C@H](CC[C@]3(C)C(=O)CC[C@@H]23)[C@@]2(C)C=CC(=O)C=C12 [EXEMESTANE] , what is its reported AC50?
Result: > 10 µM

Problem: For C[C@H]1O[C@H](O[C@H]2[C@H](O)[C@@H](O)[C@@H](O[C@H]3[C@H](O)[C@@H](O)C(O)O[C@@H]3CO)O[C@@H]2CO)[C@H](O)[C@@H](O)[C@@H]1N[C@H]1C=C(CO)[C@@H](O)[C@H](O)[C@H]1O (some centres not stated) [ACARBOSE] , what is its reported AC50?
Result: > 30 µM

New cases:
Problem: For C[C@H]1C[C@@H]2[C@H]([C@@H](O)C[C@@]3(C)[C@H]2CC[C@]3(O)C(=O)COC(=O)CCC(=O)O)[C@@]2(C)C=CC(=O)C=C12 [METHYLPREDNISOLONE HEMISUCCINATE] , what is its reported AC50?
Result: > 30 µM

Problem: For COc1c(N2CCNC(C)C2)c(F)cc2c(=O)c(C(=O)O)cn(C3CC3)c12 (configuration not stated) [GATIFLOXACIN] , what is its reported AC50?
Result: > 10 µM

###

Biological target: Adenosine receptor A2a (Homo sapiens, UniProt P29274); further: assay procedure not described here
Sequence (P29274 whole entry): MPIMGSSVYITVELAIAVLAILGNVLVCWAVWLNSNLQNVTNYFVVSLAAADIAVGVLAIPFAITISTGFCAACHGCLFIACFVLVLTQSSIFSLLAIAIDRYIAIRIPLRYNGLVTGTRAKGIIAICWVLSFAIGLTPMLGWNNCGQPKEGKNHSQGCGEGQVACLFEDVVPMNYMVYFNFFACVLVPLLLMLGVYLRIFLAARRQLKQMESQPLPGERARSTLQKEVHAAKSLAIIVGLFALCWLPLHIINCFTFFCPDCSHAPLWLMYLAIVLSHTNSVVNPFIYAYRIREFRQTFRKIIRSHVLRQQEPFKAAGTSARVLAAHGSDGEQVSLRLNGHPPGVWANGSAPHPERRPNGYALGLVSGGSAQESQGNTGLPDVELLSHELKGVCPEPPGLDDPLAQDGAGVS
Collected AC50 values appear next to each entry.

Solved entries (count: 4):
Problem: For "O=C(CCCCCCC(=O)Nc1ccccc1)NO" , what is its reported AC50?
Result: > 30 µM

Problem: For CC(C(=O)O)c1ccc(N2CC=CC2)c(Cl)c1 (stereo not given) , what is its reported AC50?
Result: > 30 µM

Problem: For "CCC[C@@H]1C[C@@H](C(=O)N[C@@H]([C@H]2O[C@H](SC)[C@H](O)[C@@H](O)[C@H]2O)[C@H](C)Cl)N(C)C1" , what is its reported AC50?
Result: > 30 µM

Problem: For CC(C)NCC1CCc2cc(CO)c([N+](=O)[O-])cc2N1 (stereo not given) , what is its reported AC50?
Result: > 10 µM

Let us move to another entry and its AC50.
Problem: For "CCCS(=O)(=O)Nc1ccc(F)c(C(=O)c2c[nH]c3ncc(-c4ccc(Cl)cc4)cc23)c1F" , what is its reported AC50?
Result: > 30 µM

###

Histamine H3 receptor (Homo sapiens): reported AC50 for various compounds. Further: assay procedure not described here.
Sequence (Q9Y5N1 whole entry): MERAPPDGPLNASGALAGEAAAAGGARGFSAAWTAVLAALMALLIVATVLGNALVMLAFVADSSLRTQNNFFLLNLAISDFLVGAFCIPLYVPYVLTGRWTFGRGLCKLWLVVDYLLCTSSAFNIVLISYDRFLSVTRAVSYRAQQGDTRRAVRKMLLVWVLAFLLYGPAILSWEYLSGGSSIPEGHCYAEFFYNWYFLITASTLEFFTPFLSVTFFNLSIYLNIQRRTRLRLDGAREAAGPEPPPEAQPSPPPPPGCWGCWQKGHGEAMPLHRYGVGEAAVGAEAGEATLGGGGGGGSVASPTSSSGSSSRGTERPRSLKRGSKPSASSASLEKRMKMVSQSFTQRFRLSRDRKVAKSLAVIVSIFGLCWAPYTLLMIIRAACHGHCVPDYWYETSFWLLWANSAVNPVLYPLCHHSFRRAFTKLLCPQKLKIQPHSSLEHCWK

Solved entries (count: 5):
Problem: Param readout = AC50; param system = Histamine H3 receptor (Homo sapiens); param query = "Nc1nc(-n2cc(C(=O)O)c(=O)c3cc(F)c(N4CC(O)C4)c(Cl)c32)c(F)cc1F" ; response: value; further: assay procedure not described here
Result: > 30 µM

Problem: Param readout = AC50; param system = Histamine H3 receptor (Homo sapiens); param query = CCOC(=O)CC(SP(=S)(OC)OC)C(=O)OCC (stereo not drawn) ; response: value; further: assay procedure not described here
Result: > 30 µM

Problem: Param readout = AC50; param system = Histamine H3 receptor (Homo sapiens); param query = "CC1=NN(c2ccccc2)C(=O)C1" ; response: value; further: assay procedure not described here
Result: > 30 µM

Problem: Param readout = AC50; param system = Histamine H3 receptor (Homo sapiens); param query = "CCO[C@@H](Cc1ccc(OCCn2c(C)ccc2-c2ccc(SC)cc2)cc1)C(=O)O" ; response: value; further: assay procedure not described here
Result: > 30 µM

Problem: Param readout = AC50; param system = Histamine H3 receptor (Homo sapiens); param query = C[C@@H]1C[C@H]2[C@@H]3C[C@H](F)C4=CC(=O)C=C[C@]4(C)[C@@]3(F)[C@@H](O)C[C@]2(C)[C@@]1(O)C(=O)COC(=O)C(C)(C)C [FLUMETHASONE PIVALATE] ; response: value; further: assay procedure not described here
Result: > 30 µM

New cases:
Problem: Param readout = AC50; param system = Histamine H3 receptor (Homo sapiens); param query = Nc1ccc(S(N)(=O)=O)cc1 [SULFANILAMIDE] ; response: value; further: assay procedure not described here
Result: > 30 µM

Problem: Param readout = AC50; param system = Histamine H3 receptor (Homo sapiens); param query = "CCOC(=O)c1ccc(O)cc1" ; response: value; further: assay procedure not described here
Result: > 30 µM
